test: Oral bioavailability in HIV1 infected patient at 600 mg administered as single dose; type: ADME, organism-based; details: human, in vivo

{"SMILES_DATA": "CC(C)c1nc(CN(C)C(=O)N[C@H](C(=O)N[C@@H](Cc2ccccc2)C[C@H](O)[C@H](Cc2ccccc2)NC(=O)OCc2cncs2)C(C)C)cs1", "bioavailability, %": 37}

----------
The following molecules are shown together with reported pIC50 values.
target: Protease (Human immunodeficiency virus 1)
Sequence (Q9YQ12 whole entry): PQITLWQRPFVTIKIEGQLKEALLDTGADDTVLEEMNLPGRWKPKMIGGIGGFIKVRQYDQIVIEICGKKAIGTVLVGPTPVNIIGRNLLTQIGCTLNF
pIC50: −log10 of the molar value.
REPORTED_PROPERTY: pIC50

{"SMILES_DATA": "COc1ccc(S(=O)(=O)N(C[C@@H]2CCC(=O)N2)C[C@@H](O)[C@H](Cc2ccccc2)NC(=O)O[C@H]2CC[C@H]3OCC[C@@H]23)cc1", "REPORTED": 7.55}
{"SMILES_DATA": "CC(C)(C)NC(=O)[C@@H]1C[C@@H]2CCCC[C@@H]2CN1C[C@@H](O)[C@H](Cc1ccccc1)NC(=O)[C@@H](NC(=O)c1ccc2ccccc2n1)[C@H]1CCOC1", "REPORTED": 10.30}
{"SMILES_DATA": "O=C(N[C@@H](Cc1ccccc1)[C@@H](O)C[C@@H](Cc1ccccc1)C(=O)N[C@H]1c2ccccc2C[C@H]1O)OC1CCCC1", "REPORTED": 9.52}

----------
Values of Ki reported for Protease (Human immunodeficiency virus 1, UniProt Q9YQ12) appear below.

{"MOLECULE": "COc1ccc(S(=O)(=O)N(CC(C)C)C[C@@H](O)[C@H](Cc2ccccc2)NC(=O)[C@@H]2CCO[C@]3(CCCO3)C2)cc1", "ASSAYED_SYSTEM": "Protease (Human immunodeficiency virus 1, UniProt Q9YQ12)", "UNIT_LABEL": "nM", "Ki": 3.9}
{"MOLECULE": "COc1ccc(S(=O)(=O)N(CC(C)C)C[C@@H](O)[C@H](Cc2ccccc2)NC(=O)O[C@H]2COC3OCCC[C@@H]32)cc1 (single isomer, unassigned)", "ASSAYED_SYSTEM": "Protease (Human immunodeficiency virus 1, UniProt Q9YQ12)", "UNIT_LABEL": "nM", "Ki": 2.2}
{"MOLECULE": "COc1ccc(S(=O)(=O)N(CC(C)C)C[C@@H](O)[C@H](Cc2ccccc2)NC(=O)O[C@H]2CC[C@]3(CCCO3)C2)cc1", "ASSAYED_SYSTEM": "Protease (Human immunodeficiency virus 1, UniProt Q9YQ12)", "UNIT_LABEL": "nM", "Ki": 3.7}
{"MOLECULE": "COc1ccc(S(=O)(=O)N(C[C@@H]2CCC(=O)N2)C[C@@H](O)[C@H](Cc2ccccc2)NC(=O)O[C@H]2CC[C@H]3OCC[C@@H]23)cc1", "ASSAYED_SYSTEM": "Protease (Human immunodeficiency virus 1, UniProt Q9YQ12)", "UNIT_LABEL": "nM", "Ki": 0.16}
{"MOLECULE": "COc1ccc(S(=O)(=O)N(CC(C)C)C[C@@H](O)[C@H](Cc2ccccc2)NC(=O)[C@@H]2CCCS(=O)(=O)C2)cc1", "ASSAYED_SYSTEM": "Protease (Human immunodeficiency virus 1, UniProt Q9YQ12)", "UNIT_LABEL": "nM", "Ki": 1.4}
{"MOLECULE": "COc1ccc(S(=O)(=O)N(CC(C)C)C[C@@H](O)[C@H](Cc2ccccc2)NC(=O)O[C@H]2CC[C@H]3OCO[C@@H]23)cc1", "ASSAYED_SYSTEM": "Protease (Human immunodeficiency virus 1, UniProt Q9YQ12)", "UNIT_LABEL": "nM", "Ki": 0.11}
